Provenance of the data: patent US10077243B2

Overview of recorded EC50 for various compounds
- system: human mGluR5 (Homo sapiens)
- Construct: expressed in transfected cells; host or cells: HEK293 cells stably expressing rat GLAST (EAAT1), stably transfected with pcDNAzeo3.1 carrying synthetic human mGluR5 DNA; zeocin-selected single clones
- assay-protocol: In vitro cell-based FLIPR calcium assay for positive modulation of the activation of mGluR5 by glutamate (PAM EC50)
- measurement-parameters: HEK293/GLAST cells expressing recombinant human mGluR5; FLIPR calcium signal; glutamate added at its EC20; read-out: mGluR5 PAM EC50

# example entries with known answers
• O=c1[nH]cnc2cc(C#Cc3cccc(F)c3)ccc12 = 300 to 1000 nM
• CC1(C)Cc2nc3cc(C#Cc4ccccn4)cnc3c(=O)n2C1 = 30 to 100 nM
• CN(C)C1CCc2nc3cc(C#Cc4cccc(F)c4)ccc3c(=O)n2C1 (stereo not drawn) = 100 to 300 nM
• Cc1scnc1C#Cc1ccc2c(=O)n3c(nc2c1)CCC1(CC3)OCCO1 = 300 to 1000 nM
• CC1(C)Cc2nc3cc(C#Cc4ccccn4)ccc3c(=O)n2C1 = < 10 nM

Next compound, please.
input: What value of measured EC50 is listed for COCC1CCc2nc3cc(C#Cc4ccccn4)ccc3c(=O)n2C1 (stereo not drawn) [Example 4.34] ?
output: 10 to 30 nM

====

- system: human mGluR5 (Homo sapiens, UniProt P41594)
- Construct: expressed in transfected cells; host or cells: HEK293 cells stably expressing rat GLAST (EAAT1), stably transfected with pcDNAzeo3.1 carrying synthetic human mGluR5 DNA; zeocin-selected single clones
- Sequence (P41594 21-1212): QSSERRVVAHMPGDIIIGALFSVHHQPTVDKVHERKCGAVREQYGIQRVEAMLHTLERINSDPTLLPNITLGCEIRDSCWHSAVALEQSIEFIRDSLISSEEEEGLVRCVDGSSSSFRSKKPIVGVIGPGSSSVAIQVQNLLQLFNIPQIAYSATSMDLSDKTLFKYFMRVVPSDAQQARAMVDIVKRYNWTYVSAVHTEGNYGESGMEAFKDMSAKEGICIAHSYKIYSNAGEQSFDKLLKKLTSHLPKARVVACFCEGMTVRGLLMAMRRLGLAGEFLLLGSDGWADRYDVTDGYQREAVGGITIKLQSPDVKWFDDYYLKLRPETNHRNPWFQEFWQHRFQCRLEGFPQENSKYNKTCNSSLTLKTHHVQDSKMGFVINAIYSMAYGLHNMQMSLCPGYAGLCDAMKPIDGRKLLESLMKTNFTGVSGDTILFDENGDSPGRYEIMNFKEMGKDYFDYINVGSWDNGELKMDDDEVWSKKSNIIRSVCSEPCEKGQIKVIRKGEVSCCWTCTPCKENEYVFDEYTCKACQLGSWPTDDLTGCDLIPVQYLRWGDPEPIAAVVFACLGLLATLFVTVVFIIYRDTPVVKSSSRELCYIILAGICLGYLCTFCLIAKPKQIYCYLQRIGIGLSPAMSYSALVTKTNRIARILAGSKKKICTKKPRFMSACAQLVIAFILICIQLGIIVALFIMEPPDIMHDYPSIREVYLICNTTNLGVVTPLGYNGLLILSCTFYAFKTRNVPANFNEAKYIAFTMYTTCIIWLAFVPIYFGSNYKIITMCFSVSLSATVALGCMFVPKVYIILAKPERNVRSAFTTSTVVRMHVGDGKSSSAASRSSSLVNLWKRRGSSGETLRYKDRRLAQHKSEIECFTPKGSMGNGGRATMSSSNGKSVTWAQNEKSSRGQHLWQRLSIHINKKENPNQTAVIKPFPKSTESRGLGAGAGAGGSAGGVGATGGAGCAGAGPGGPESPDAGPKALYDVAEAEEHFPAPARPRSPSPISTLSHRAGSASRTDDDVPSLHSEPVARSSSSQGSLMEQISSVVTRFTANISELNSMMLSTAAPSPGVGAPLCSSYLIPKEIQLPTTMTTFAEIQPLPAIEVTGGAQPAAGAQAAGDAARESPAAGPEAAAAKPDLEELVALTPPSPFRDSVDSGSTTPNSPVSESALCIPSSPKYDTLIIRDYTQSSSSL
- assay-protocol: In vitro cell-based FLIPR calcium assay for positive modulation of the activation of mGluR5 by glutamate (PAM EC50)
- measurement-parameters: HEK293/GLAST cells expressing recombinant human mGluR5; FLIPR calcium signal; glutamate added at its EC20; read-out: mGluR5 PAM EC50
observation-type: EC50

Look over these answered cases.
* CC1(O)CCc2nc3cc(C#Cc4ccccn4)ccc3c(=O)n2C1 (stereo not drawn) | 0.1 to 0.3 µM
* CC(C)N(C)C(C)c1nc2cc(C#Cc3ccccn3)ccc2c(=O)n1C (stereo not drawn) | 0.3 to 1 µM

input: Dear colleague, I am looking for the recorded EC50 of the following molecule: COCC1CCc2nc3cc(C#Cc4cccc(F)c4)ccc3c(=O)n2CC1 (stereo not drawn)
output: 0.01 to 0.03 µM

input: Check COCCn1cnc2cc(C#Cc3ccncc3)ccc2c1=O too.
output: 0.1 to 0.3 µM

input: Same question, CC1Cc2nc3cc(C#Cc4ccccn4)ccc3c(=O)n2C1 (single isomer, unassigned) [3.12/3.13 slower moving enantiomer (fraction 2)] this time
output: 0.01 to 0.03 µM

input: Now the same for CCCn1cnc2cc(C#Cc3cccc(F)c3)ccc2c1=O
output: 0.01 to 0.03 µM

====

- system: human mGluR5 (Homo sapiens, UniProt P41594)
- Construct: expressed in transfected cells; host or cells: HEK293 cells stably expressing rat GLAST (EAAT1), stably transfected with pcDNAzeo3.1 carrying synthetic human mGluR5 DNA; zeocin-selected single clones
- assay-protocol: In vitro cell-based FLIPR calcium assay for positive modulation of the activation of mGluR5 by glutamate (PAM EC50)
- measurement-parameters: HEK293/GLAST cells expressing recombinant human mGluR5; FLIPR calcium signal; glutamate added at its EC20; read-out: mGluR5 PAM EC50
observation-type: EC50

Observe how each entry below is paired with its result.
* O=c1c2ccc(C#Cc3cccc(F)c3)cc2ncn1C1CCCC1 [Example 1.11] | 10 to 30 nM
* Cn1c(CN2CCCC2)nc2cc(C#Cc3cccc(F)c3)ccc2c1=O [Example 2.6] | 100 to 300 nM
* CCC(C)N1CCn2c(nc3cc(C#Cc4cccc(F)c4)ccc3c2=O)C1 (centres unmarked) [Example 5.6] | 100 to 300 nM
* COC1(C)CCc2nc3cc(C#Cc4ccccn4)ccc3c(=O)n2C1 (centres unmarked) [Example 4.46] | 10 to 30 nM

input: Any idea what EC50 came out for CN1CCCn2c(nc3cc(C#Cc4ccc(F)cc4)ccc3c2=O)CC1 [Example 10.1] on human mGluR5 (Homo sapiens, UniProt P41594)?
output: 10 to 30 nM
